B1: ADAMTS4 (parent)
chain: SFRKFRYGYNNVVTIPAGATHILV

Variants of: B1
ASSAY NAME: protein stability index of a GFP-peptide fusion (GPS, HEK-293T) (PSI 1-6); higher = more stable;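 note: lentivirally expressed fusions sorted by FACS into six bins by GFP to DsRed ratio, PSI derived from sequencing read proportions per bin multiplied by bin number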
TEST CONDITIONS: c terminus: a fixed tail appended
REPORTED METRIC: protein stability index

1) V12F; 1.71
2) Y9A; 3.15
3) K4S; 2.6
4) R6P; 3.56
5) N11G; 2.89
6) A19Y; 3.44
7) N11Y; 1.19
8) G8R; 2.96
9) A17E; 1.61
10) V24Q; 1.75
